# Format: physicochemical
# Experimental parameters: DI water, 25° C., 0.5 mM; time 1 h
Task for the reader: assign each of the following compounds its reported Condition 2 Conversion (%).

Prompt line: Which Condition 2 Conversion (%) is listed for C=C(C)C(=O)OC1=C[C@@H]2N(C)CC[C@]2(c2ccc(OC)c(OC)c2)CC1 ?
Response line: 0%

Prompt line: Dear colleague, I am looking for the recorded Condition 2 Conversion (%) of the following compound: COc1ccc([C@@]23CCC(=NNC(=O)C45CC6CC(CC(C6)C4)C5)C[C@@H]2N(C)CC3)cc1OC
Response line: 85.7%

Prompt line: If you can, please state the reported Condition 2 Conversion (%) value of COc1ccc([C@@]23CC/C(=N/OC45CC6CC(CC(C6)C4)C5)C[C@@H]2N(C)CC3)cc1OC [Compound 301] .
Response line: 0%

Prompt line: # get_value(readout='Condition 2 Conversion (%)', item= COc1ccc([C@@]23CC/C(=N\NC(=O)C4(C(=O)O)CC4)C[C@@H]2N(C)CC3)cc1OC )
Response line: 0%

* * *

Exercise: for every item that follows, state its recorded Condition 1 Conversion (%).
# Type: physicochemical
# Experimental parameters: SGF with pepsin, pH 1.5, 37° C., 0.5 mM; time 4 h
Reply numerically in %, unit not repeated.

Prompt line: Bench note: what Condition 1 Conversion (%) did COc1ccc([C@@]23CCC(OC(=O)C4CC4)=C[C@@H]2N(C)CC3)cc1OC [Compound 312] show?
Response line: 0

Prompt line: Entry COc1ccc([C@@]23CCC(=NNC(=O)COc4ccccc4)C[C@@H]2N(C)CC3)cc1OC [Compound 223] has what Condition 1 Conversion (%)?
Response line: 100

Prompt line: Item under review: C/C=C(\C)C(=O)OC1=C[C@@H]2N(C)CC[C@]2(c2ccc(OC)c(OC)c2)CC1 [Compound 313] . Reported Condition 1 Conversion (%)?
Response line: 0

Prompt line: Given the entry COc1ccc([C@@]23CC/C(=N/OC45CC6CC(CC(C6)C4)C5)C[C@@H]2N(C)CC3)cc1OC [Compound 301] , report its measured Condition 1 Conversion (%).
Response line: 100

Prompt line: # Condition 1 Conversion (%) lookup, item COc1ccc([C@@]23CC/C(=N\NC(=O)Nc4ccccc4Cl)C[C@@H]2N(C)CC3)cc1OC [Compound 249]
Response line: 96.72

Prompt line: Query: Condition 1 Conversion (%); subject: COc1ccc([C@@]23CCC(=NNC(=O)c4ccc(Cl)cc4)C[C@@H]2N(C)CC3)cc1OC [Compound 240]
Response line: 100

Prompt line: Any idea what Condition 1 Conversion (%) was measured for COc1ccc([C@@]23CCC(=NNC(=O)CC[C@H](NC(=O)c4ccc(NCc5cnc6nc(N)nc(O)c6n5)cc4)C(=O)O)C[C@@H]2N(C)CC3)cc1OC [Compound 172] ?
Response line: 100

* * *

# Experimental parameters: 4 h, 10 μM
Field: Prodrug (%) remaining, Human Plasma. Provide a value for each of the molecules that follow.

Prompt line: Quick check: Prodrug (%) remaining, Human Plasma of COc1ccc([C@@]23CCC(OC(=O)c4ccc(C(C)C)cc4)=C[C@@H]2N(C)CC3)cc1OC ?
Response line: 78.0%

Prompt line: Prodrug (%) remaining, Human Plasma for COc1ccc([C@@]23CCC(OC(=O)c4cccc(C)c4C)=C[C@@H]2N(C)CC3)cc1OC ?
Response line: 96.3%

Prompt line: Fill blank: measured Prodrug (%) remaining, Human Plasma of the molecule COc1ccc([C@@]23CCC(OC(=O)c4c(C)cc(C)cc4C)=C[C@@H]2N(C)CC3)cc1OC is ____.
Response line: >99%

Prompt line: Please report the recorded Prodrug (%) remaining, Human Plasma for COc1ccc([C@@]23CCC(OC(=O)CC(C)(C)C)=C[C@@H]2N(C)CC3)cc1OC .
Response line: 37.4%

Prompt line: Given the molecule COCCCCC(=O)OC1=C[C@@H]2N(C)CC[C@]2(c2ccc(OC)c(OC)c2)CC1 , what is its reported Prodrug (%) remaining, Human Plasma?
Response line: 1.6%

Prompt line: State the recorded Prodrug (%) remaining, Human Plasma for this entry: CCCCCCCC(=O)OC1=C[C@@H]2N(C)CC[C@]2(c2ccc(OC)c(OC)c2)CC1
Response line: 0.1%

Prompt line: Would you kindly share the measured Prodrug (%) remaining, Human Plasma for COc1ccc([C@@]23CCC(OC(=O)c4c(C)cccc4C)=C[C@@H]2N(C)CC3)cc1OC ?
Response line: >99%

Prompt line: Which Prodrug (%) remaining, Human Plasma is reported for this molecule? CCCC(CC)CC(=O)OC1=C[C@@H]2N(C)CC[C@]2(c2ccc(OC)c(OC)c2)CC1 (some centres unmarked)
Response line: 25.5%

Prompt line: Which measured Prodrug (%) remaining, Human Plasma value corresponds to CCC(C)C(=O)OC1=C[C@@H]2N(C)CC[C@]2(c2ccc(OC)c(OC)c2)CC1 (some centres unmarked) ?
Response line: 1.9%

Prompt line: Sample CCCCC(CC)C(=O)OC1=C[C@@H]2N(C)CC[C@]2(c2ccc(OC)c(OC)c2)CC1 (some centres unmarked) — what was its Prodrug (%) remaining, Human Plasma?
Response line: 93.4%

Prompt line: Recorded Prodrug (%) remaining, Human Plasma of CCC(C)(CC)C(=O)OC1=C[C@@H]2N(C)CC[C@]2(c2ccc(OC)c(OC)c2)CC1 , please.
Response line: 95.9%

* * *

# Type: physicochemical
# Experimental parameters: SGF with pepsin, pH 1.5, 37° C., 0.5 mM; time 24 h
Endpoint: Condition 1 Conversion (%)

Prompt line: Request the reported Condition 1 Conversion (%) associated with COc1ccc([C@@]23CCC(=NNC(=O)Nc4cccnc4)C[C@@H]2N(C)CC3)cc1OC [Compound 299]
Response line: 100%

Prompt line: So what does the record say about Condition 1 Conversion (%) for COc1ccc([C@@]23CC/C(=N\NC(=O)NC[C@H]4CC[C@H](C(=O)O)CC4)C[C@@H]2N(C)CC3)cc1OC [Compound 258] ?
Response line: 100%

Prompt line: Would you mind telling me what Condition 1 Conversion (%) value was observed for COc1ccc([C@@]23CCC(OC(=O)C4CC4)=C[C@@H]2N(C)CC3)cc1OC [Compound 312] ?
Response line: 0%

Prompt line: Any idea what Condition 1 Conversion (%) was measured for COc1ccc([C@@]23CC/C(=N\NC(=O)c4cccnc4)C[C@@H]2N(C)CC3)cc1OC [Compound 036] ?
Response line: 100%

Prompt line: Look up Condition 1 Conversion (%) for this compound: CCCC1CO[C@@]2(CC[C@@]3(c4ccc(OC)c(OC)c4)CCN(C)C3C2)O1 (stereo partly shown) [Compound 238]
Response line: 0%

Prompt line: Given the compound COc1ccc([C@@]23CCC(=NNC(C)=O)C[C@@H]2N(C)CC3)cc1OC [Compound 222] , what is its reported Condition 1 Conversion (%)?
Response line: 100%

Prompt line: Quick check: Condition 1 Conversion (%) of COc1ccc([C@@]23CCC(=NNC(=O)Nc4ccc(C(=O)O)cc4)C[C@@H]2N(C)CC3)cc1OC (racemic) [Compound 259] ?
Response line: 31.9%

Prompt line: Need Condition 1 Conversion (%) of COc1ccc([C@@]23CCC(=NNc4cnccn4)C[C@@H]2N(C)CC3)cc1OC [Compound 365] , thanks.
Response line: 100%

Prompt line: Return reported Condition 1 Conversion (%); argument: C/C=C(\C)C(=O)OC1=C[C@@H]2N(C)CC[C@]2(c2ccc(OC)c(OC)c2)CC1 [Compound 313]
Response line: 0%

Prompt line: Which Condition 1 Conversion (%) value belongs to COc1ccc([C@@]23CCN(C)[C@@H]2CC2(CC3)SCCS2)cc1OC [Compound 046] ?
Response line: 0%

Prompt line: Recorded Condition 1 Conversion (%) for COc1ccc([C@@]23CCC(=NNc4ncccc4C)C[C@@H]2N(C)CC3)cc1OC [Compound 364] , please?
Response line: 90.5%

Prompt line: // Condition 1 Conversion (%) lookup, key: COc1ccc([C@@]23CCC(=NNc4ccc(Cl)cc4)C[C@@H]2N(C)CC3)cc1OC [Compound 221]
Response line: 95.1%

Prompt line: # Condition 1 Conversion (%) lookup, item COc1ccc([C@@]23CCC(=NNC(=O)C(=O)O)C[C@@H]2N(C)CC3)cc1OC [Compound 241]
Response line: 100%

Prompt line: Fill blank: measured Condition 1 Conversion (%) of the compound COc1ccc([C@@]23CCC(=NNCc4cccc(C)c4)C[C@@H]2N(C)CC3)cc1OC [Compound 367] is ____.
Response line: 100%

Prompt line: So what's the measured Condition 1 Conversion (%) for this one? COc1ccc(C23CCC(=NNC(=O)Nc4ccccc4)C[C@@H]2N(C)CC3)cc1OC (stereo in doubt) [Compound 198]
Response line: 1%

Prompt line: Fill in: Condition 1 Conversion (%) of COc1ccc([C@@]23CCC(=NOCc4ccccc4)C[C@@H]2N(C)CC3)cc1OC [Compound 208] is ___
Response line: 12%

Prompt line: Name the reported Condition 1 Conversion (%) value associated with the compound CCON=C1CC[C@@]2(c3ccc(OC)c(OC)c3)CCN(C)[C@H]2C1 [Compound 200]
Response line: 34.1%

Prompt line: Recorded Condition 1 Conversion (%) of COc1ccc([C@@]23CCC(=NNCc4cccnc4)C[C@@H]2N(C)CC3)cc1OC [Compound 370] , please.
Response line: 100%

Prompt line: What value of measured Condition 1 Conversion (%) is listed for COc1ccc([C@]23CCN(C)[C@H]2CC(OC)(OC)CC3)cc1OC (stereo in doubt) [Compound 190] ?
Response line: 100%

Prompt line: Give the measured Condition 1 Conversion (%) of CO/N=C1/CC[C@@]2(c3ccc(OC)c(OC)c3)CCN(C)[C@H]2C1 [Compound 035] .
Response line: 38.9%

Prompt line: Query: Condition 1 Conversion (%); subject: COc1ccc([C@@]23CCC(=NOCCOc4ccccc4)C[C@@H]2N(C)CC3)cc1OC [Compound 234]
Response line: 2.63%

Prompt line: What measured Condition 1 Conversion (%) goes with COc1ccc([C@@]23CCC(OC(=O)c4ccccc4C)=C[C@@H]2N(C)CC3)cc1OC [Compound 298] ?
Response line: 0%

Prompt line: I am curious: what Condition 1 Conversion (%) value has been reported for COc1ccc([C@@]23CC/C(=N\NC(=O)C4(C(=O)O)CC4)C[C@@H]2N(C)CC3)cc1OC [Compound 243] ?
Response line: 100%

Prompt line: # lookup: Condition 1 Conversion (%) of COc1ccc(C23CCN(C)C2CC2(CC3)OCCO2)cc1OC (stereo not shown) [Compound 044]
Response line: 0%

Prompt line: I'd like to know its Condition 1 Conversion (%). The compound in question is COc1ccc([C@@]23CCC(=NOCCON=C4CC[C@@]5(c6ccc(OC)c(OC)c6)CCN(C)[C@H]5C4)C[C@@H]2N(C)CC3)cc1OC [Compound 210]
Response line: 15.35%

Prompt line: Record request: Condition 1 Conversion (%) value, item COc1ccc([C@@]23CCC(=NNC(=O)Nc4ccc(S(C)(=O)=O)cc4)C[C@@H]2N(C)CC3)cc1OC [Compound 255]
Response line: 88%

Prompt line: Item COc1ccc([C@@]23CCC(OC(=O)c4ccc(N(C)C)cc4)=C[C@@H]2N(C)CC3)cc1OC [Compound 355] has what recorded Condition 1 Conversion (%)?
Response line: 0%

Prompt line: Entry COc1ccc([C@@]23CCC(=NOC(C)(C)C)C[C@@H]2N(C)CC3)cc1OC [Compound 199] has what Condition 1 Conversion (%)?
Response line: 27.3%

Data provenance: patent US20250051277A1
